study_target: Receptor-interacting serine/threonine-protein kinase 1 (Homo sapiens)
Sequence (Q13546 whole entry): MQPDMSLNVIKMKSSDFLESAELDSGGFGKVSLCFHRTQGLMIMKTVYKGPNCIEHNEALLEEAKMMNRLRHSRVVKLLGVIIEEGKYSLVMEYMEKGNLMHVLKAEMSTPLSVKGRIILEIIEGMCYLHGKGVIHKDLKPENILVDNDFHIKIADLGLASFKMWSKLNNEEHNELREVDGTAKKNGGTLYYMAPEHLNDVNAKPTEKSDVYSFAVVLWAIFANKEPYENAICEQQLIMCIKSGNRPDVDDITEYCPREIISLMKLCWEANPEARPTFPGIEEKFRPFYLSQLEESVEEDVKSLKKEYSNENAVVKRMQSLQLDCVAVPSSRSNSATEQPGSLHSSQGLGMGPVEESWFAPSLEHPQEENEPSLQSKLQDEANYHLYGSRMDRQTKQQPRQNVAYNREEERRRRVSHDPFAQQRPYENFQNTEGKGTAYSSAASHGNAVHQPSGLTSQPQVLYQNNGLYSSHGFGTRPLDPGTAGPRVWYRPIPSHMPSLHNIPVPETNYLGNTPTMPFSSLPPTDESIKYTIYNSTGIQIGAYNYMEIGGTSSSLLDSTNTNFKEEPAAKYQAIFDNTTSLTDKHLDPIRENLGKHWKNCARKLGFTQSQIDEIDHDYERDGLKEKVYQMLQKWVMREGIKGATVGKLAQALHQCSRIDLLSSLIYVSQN
pKd: −log10 of the molar value.
Here is a set of compounds with reported pKd for Receptor-interacting serine/threonine-protein kinase 1 (Homo sapiens), compiled from the literature.
value_kind: pKd

[
  {
    "compound": "Cn1nc(-c2ccc(NS(=O)(=O)C(F)F)c(OCc3ccc(F)cc3)c2)c2c(N)ncc(-c3ccncc3)c21",
    "result_value": "< 5.00"
  },
  {
    "compound": "C[C@H](Oc1cc(-c2n[nH]c(Nc3cc(C4CC4)on3)c2C(N)=O)ccc1NS(=O)(=O)C(F)F)c1ccc(F)cc1",
    "result_value": "< 4.52"
  },
  {
    "compound": "COc1ccc([C@H](C)Oc2cc(-c3nn(C)c4c(-c5cnn(C6CCOCC6)c5)cnc(N)c34)ccc2NS(=O)(=O)C(F)F)cc1",
    "result_value": "< 5.00"
  },
  {
    "compound": "CCOc1nccc(Nc2[nH]nc(-c3ccc(NS(=O)(=O)CC)cc3)c2C(N)=O)n1",
    "result_value": "< 4.52"
  },
  {
    "compound": "C[C@H](Oc1cc(-c2nn(C)c3c(C4=CCCN(C)C4)cnc(N)c23)ccc1NS(=O)(=O)C(F)F)c1ccc(F)cc1",
    "result_value": "< 5.60"
  },
  {
    "compound": "C[C@H](Oc1cc(-c2nn(C)c3c(-c4cnn(C5CCN(C)C(C(F)F)C5)c4)cnc(N)c23)ccc1NS(=O)(=O)C(F)F)c1ccc(F)cc1 (stereo partly specified)",
    "result_value": "< 5.60"
  }
]
